A collection of molecules and their measured Max. response (fold over basal ± S.E.M.), human ortholog
Biological target: T1, human CaSR wild type (hCaSR WT) (Homo sapiens, UniProt P41180, E1011Q)
T1 construct: mGlu5 signal peptide (N, cleaved yes); expressed in transfected cells
T1 sequence (P41180 20-1078 E1011Q): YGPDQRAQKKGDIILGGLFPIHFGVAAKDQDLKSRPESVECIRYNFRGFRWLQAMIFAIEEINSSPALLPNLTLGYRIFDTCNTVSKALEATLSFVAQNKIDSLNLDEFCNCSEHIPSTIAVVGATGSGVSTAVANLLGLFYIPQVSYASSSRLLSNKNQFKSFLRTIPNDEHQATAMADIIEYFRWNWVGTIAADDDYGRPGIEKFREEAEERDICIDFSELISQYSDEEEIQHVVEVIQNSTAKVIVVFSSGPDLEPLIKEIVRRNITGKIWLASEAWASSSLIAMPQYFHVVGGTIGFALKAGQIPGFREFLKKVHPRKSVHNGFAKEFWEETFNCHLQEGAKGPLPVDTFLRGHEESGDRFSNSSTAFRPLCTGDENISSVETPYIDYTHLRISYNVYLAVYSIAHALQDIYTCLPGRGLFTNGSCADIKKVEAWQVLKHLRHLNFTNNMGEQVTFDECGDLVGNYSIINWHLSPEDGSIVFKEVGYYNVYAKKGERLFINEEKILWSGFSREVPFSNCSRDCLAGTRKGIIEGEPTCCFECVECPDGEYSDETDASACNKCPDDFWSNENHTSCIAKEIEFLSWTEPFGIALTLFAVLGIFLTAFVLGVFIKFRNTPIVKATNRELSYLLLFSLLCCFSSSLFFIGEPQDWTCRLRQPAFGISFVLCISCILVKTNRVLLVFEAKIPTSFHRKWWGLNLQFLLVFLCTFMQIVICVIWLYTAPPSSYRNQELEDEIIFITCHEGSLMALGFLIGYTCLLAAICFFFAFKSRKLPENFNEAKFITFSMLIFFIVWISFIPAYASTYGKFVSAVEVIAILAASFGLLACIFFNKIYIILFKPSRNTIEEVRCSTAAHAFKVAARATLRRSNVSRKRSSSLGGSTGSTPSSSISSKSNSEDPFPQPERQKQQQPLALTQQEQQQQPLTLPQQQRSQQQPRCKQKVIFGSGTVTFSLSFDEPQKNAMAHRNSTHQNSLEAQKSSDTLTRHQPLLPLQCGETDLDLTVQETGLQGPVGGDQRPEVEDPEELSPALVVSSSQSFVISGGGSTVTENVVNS
Assay: IP1 accumulation assay, Flp-In HEK293 HA-hCaSR WT cells
Type: cell-based
Conditions: IP1 accumulation at EC20 Ca2+
Field: numeric (fold over basal). Do not append units.

Form: molecule = Nb36: llama-derived CaSR-specific nanobody acting as PAM, SEQ ID NO:7 (protein, CaSR Nb36) VHH: QVQLVESGGGLVQAGESLRLSCAASGRTFSSYRMGWFRQGPGKEREFVAAITATGVRTYYADSVKGRFTISRDNAKNTVYLQMNSLQPDDTAVYLCAARRKAIFSVQQALTITDYDDWGQGTQVTVSS ; Max. response (fold over basal ± S.E.M.), human ortholog = 4.78

Value of measured Max. response (fold over basal ± S.E.M.), human ortholog for the entry Nb5: llama-derived CaSR-specific nanobody, weakest PAM, SEQ ID NO:8 (protein, CaSR Nb5) VHH: QVQLVESGGRLVQDGGSLRLSCAASGLTFSDYSMGWFRQVPGKEREFVAVIRRSNDSTYYADFVKGRFTISRDNAKNTVYLQMNSLQPEDTAVYSCAADRGGVGLTSAQTYAYWGQGTQVTVSS : 1.88

Form field Max. response (fold over basal ± S.E.M.), human ortholog, entry Nb10: llama-derived CaSR-specific nanobody acting as PAM, SEQ ID NO:3 (protein, CaSR Nb10) VHH: QVQLVESGGGLVQPGDSLRVSCAASGGSFRSYAMAWFRQAPGKEREFVAAMSGTYGSTIYSDSMKGRFTISRDNAKKMVYLRMNSLRPEDTAVYYCAGYYSGAYYGTPKTDYTEYDSWGQGTQVTVSS : 3.36

Provenance of the data: patent US20220411495A1
